test system: SNB-19 CNS; test: NCI-60 one-dose screen, 48 h (100 = growth as untreated, 0 = no growth, -100 = all killed); conditions: 10 µM
Compounds without any hit were thinned out: in the full panel of roughly 83,000, 20% have a hit.
ENDPOINT NAME: growth (%)
Write the number in % without appending the unit.

Output measured growth for this item: O=C1C=CC2=C3c4cc(O)c(O)cc4CC3(O)COC2=C1O (configuration not stated)
104

Kindly indicate its recorded growth. Item: CC(=O)OC(C(=O)O)c1ccccc1 (configuration not stated)
115

// fetch growth given entry O=C(CCl)Nc1ccc2c(c1)C(=O)c1ccc(NC(=O)CCl)cc1C2=O
-45.3

Please list growth recorded for the molecule O=C(O)C(O)c1ccccc1 (configuration not stated)
108

Identify the reported growth for the following entry. CCOc1ccc(Br)cc1/C=N\N=C\c1cc(Br)ccc1OCC
117

Look up growth of COc1cc(/C=C/C(=O)c2ccccc2)cc(OC)c1OC and report it.
83.8

Identify growth associated with the molecule CCC/C=C(\C)C(C)(C#N)C(=O)OCC (configuration not stated)
102

Identify measured growth corresponding to CC(=O)c1ccc(N=C(C#N)C2=C(O)c3ccccc3C2=O)cc1
101

Read off the recorded growth for COCCCNC(=O)c1nnn2c1nc(N)c1cc(Cl)ccc12
102

Return value of growth for input NNc1ccccc1C(=O)O , no commentary.
113

Supply recorded growth for CCOC(=O)C1=C(Nc2ccc(Br)cc2)C(=O)N(CC)C1 here.
84

Provide measured growth value, entry: CCOC(=O)/C(C#N)=C/c1cccc(C)c1
94.8
